Please provide measured TGI for the entries that follow.
System: SF-539 CNS
method_summary: NCI tumour cell line growth inhibition, 48 h
Numbers only, in µM.

CC1Cc2cc(O)ccc2C2[C@@H]1C1CC[C@H](O)[C@@]1(C)C[C@@H]2O[N+](=O)[O-] (stereo not given in full)	18.9

Continue with the next molecule.
Observed TGI on SF-539 CNS, entry Cc1ccccc1/C=C1\CN(C(=O)OC(C)(C)C)C/C(=C\c2ccccc2C)C1=O , equals 3.64

====

Test system: NCI-H226 lung
method_summary: NCI tumour cell line growth inhibition, 48 h
Please provide measured GI50 for the entries that follow.

COc1ccc(/C=C/C(=O)c2ccc(Nc3ccnc4cc(Cl)ccc34)cc2)cc1	> 100 µM
COc1cc([C@@H]2c3cc4c(c(O)c3C[C@H]3COC(=O)[C@@H]32)OCO4)cc(OC)c1O	0.00562 µM
CC(C)Oc1ccc(C(=O)N[C@H](CNC(=O)CN(C)C)Cc2ccc(-c3cn4cccc([C@H](C)O)c4n3)cc2)cc1Cl	10.9 µM
C/C(=N\NC(=O)c1ccncc1)c1ccc(O)cc1O	5.14 µM
C[C@@]1(N2C(=O)OC[C@@H]2c2ccccc2)C(=O)N([C@H](CC(=O)N2CCC(N3CCCCC3)CC2)C(=O)NCc2cccc(C(F)(F)F)c2)[C@@H]1/C=C/c1ccccc1	22.5 µM

I would be grateful if you could provide GI50 for each of the following entries.
1. CCCN1CCN(c2ccc3nc(-c4ccc5nc(-c6ccc(OCC)c(OCC)c6)[nH]c5c4)[nH]c3c2)CC1
2. CC[C@@]1(O)C(=O)OCc2c1cc1n(c2=O)Cc2c-1nc1ccccc1c2/C=N/OC(C)(C)C
3. O=CC1(C2(C=O)c3ccccc3-c3ccccc32)c2ccccc2-c2ccccc21
4. N=c1ccn2c(n1)O[C@@H]1[C@@H](O)[C@H](CO)O[C@@H]12
5. Cc1ccccc1/C=C1\CN(C(=O)OC(C)(C)C)C/C(=C\c2ccccc2C)C1=O
6. O=C(/C=C/c1cccnc1)c1ccccc1O
7. C[C@]12CC[C@H]3[C@@H](C[C@@H]4N=C(c5ccc(O)cc5)S[C@@]45C[C@H](O)CC[C@]35C)[C@@H]1CC[C@@H]2O
8. CC([O-])C(=O)[O-].NCC1CCC1CN.[Pt+4] (centres undefined)

output:
0.495 µM
< 0.01 µM
3.3 µM
3.52 µM
2.01 µM
20 µM
27.4 µM
> 10 µM

Recorded result, COc1ccc(CNc2nc(NCc3ccc(OC)cc3)c3n[nH]c(C(C)C)c3n2)cc1 , GI50: 14.1 µM

====

System: MOLT-4 leukemia
method_summary: NCI tumour cell line growth inhibition, 48 h; in the data active = GI50 below about 0.43 µM; inactive = the rest
Entry note: the call must match one of active, inactive

Before answering, review these 4 worked examples.
COc1cc2c3c(c4c5ccccc5[nH]c4c2c(OC)c1OC)C(=O)N(CCN1CCCCC1)C3=O	inactive
COC(=O)c1ccc(C2SCC(=O)N2NC(=O)C(O)c2ccccc2)cc1 (stereo not drawn)	inactive
COc1cc2c3c(n(CCCCl)c(=O)c2cc1OC)-c1ccc(C#N)cc1C3=O	inactive
CN1CCCN(C(c2ccccc2)c2ccc(Br)cc2)CC1 (stereo not drawn)	inactive

input: Assay result, entry COc1ccc(-c2nocc2-c2cc(OC)c(OC)c(OC)c2)cc1 — outcome?
output: active

input: Assay result, entry O=C(/C=C/c1cccnc1)c1ccccc1O — outcome?
output: inactive

input: Assay result, entry S=C(N/N=C(/c1ccccc1)c1ccccn1)Nc1cccc(Cl)c1 — outcome?
output: active

input: Assay result, entry CC[C@]12CCCN3CC[C@]4(C(=C(C(=O)OC)C1)Nc1ccccc14)[C@@H]32 — outcome?
output: inactive

input: Assay result, entry O=C(CCl)Nc1ccc2c(c1)C(=O)c1ccc(NC(=O)CCl)cc1C2=O — outcome?
output: active

input: Assay result, entry CCCCCCCCCC(CCCC(O)CC(=O)O)OC1OC(COC2OC(C)C(O)C(O)C2O)C(O)C(O)C1OC1OC(CO)C(O)C(O)C1OC1OC(C)C(O)C(O)C1O (stereo not drawn) — outcome?
output: inactive

input: Assay result, entry C=C1N(C)c2ccc(Cl)cc2C1(C)C — outcome?
output: inactive
